Experimental Target: FK506-binding protein 12 (human, UniProt P62942 1-108)
Sequence (P62942 whole entry): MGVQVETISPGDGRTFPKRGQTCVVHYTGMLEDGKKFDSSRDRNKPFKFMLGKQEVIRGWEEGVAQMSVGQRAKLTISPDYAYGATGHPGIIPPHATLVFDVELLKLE
Assay Details: fluorescence polarisation
Non-standard residues stand in square brackets, D forms with d. *: point of attachment. Dkb = 3,3-dimethyl-2-ketobutyryl, CC(C)(C)C(=O)C(=O)*; d(β3hF) = N[C@@H](CC(=O)O)Cc1ccccc1; Pip = O=C(O)[C@@H]1CCCCN1
# pIC50 per record follows
// pIC50 is dimensionless: -log10 of concentration (M)

Solved cases below.
1. cyclo(DP[dA][Dkb][Pip][d(β3hF)]Q) (also: ester bond between residues 3 and 4) [rapalog 11 (R3 Pro, R4 Asp)] | 4.68
2. cyclo(AGP[dA][Dkb][Pip][d(β3hF)]Q) (also: 5 Dkb: ester to 4) [rapalog 12 (R3 Pro, R4 Gly)] | 5.22
3. cyclo([dT]P[dA][Dkb][Pip][d(β3hF)]Q) (also: 4 Dkb: ester to 3) [rapalog 11 (R3 Pro, R4 D-Thr)] | 4.39
4. cyclo([dF]P[dA][Dkb][Pip][d(β3hF)]Q) (also: 4 Dkb: ester to 3) [rapalog 11 (R3 Pro, R4 D-Phe)] | 4.34
5. cyclo(WK[dA][Dkb][Pip][d(β3hF)]Q) (also: ester bond between residues 3 and 4) [rapalog 11 (R3 Lys, R4 Trp)] | 4.92
6. cyclo(KP[dA][Dkb][Pip][d(β3hF)]Q) (also: 4 Dkb: ester to 3) [rapalog 11 (R3 Pro, R4 Lys)] | 4.44
7. cyclo([dT]K[dA][Dkb][Pip][d(β3hF)]Q) (also: ester bond between residues 3 and 4) [rapalog 11 (R3 Lys, R4 D-Thr)] | 4.21
8. cyclo(WP[dA][Dkb][Pip][d(β3hF)]Q) (also: 4 Dkb: ester to 3) [rapalog 11 (R3 Pro, R4 Trp)] | 4.68

*Q* Need pIC50 of cyclo(AP[dA][Dkb][Pip][d(β3hF)]Q) (also: ester bond between residues 3 and 4) [rapalog 11 (R3 Pro, R4 Ala)] , thanks.
*A* 4.48

*Q* Need pIC50 of cyclo(AKP[dA][Dkb][Pip][d(β3hF)]Q) (also: 5 Dkb: ester to 4) [rapalog 12 (R3 Pro, R4 Lys)] , thanks.
*A* 4.54

Hey, just so you know, these numbers are from paper PMC3171579.
